All values here come from patent US20240067748A1.

# assay target: T1, human Trop2 on cells (human, UniProt P09758 27-323)
# T1 sequence (looked up): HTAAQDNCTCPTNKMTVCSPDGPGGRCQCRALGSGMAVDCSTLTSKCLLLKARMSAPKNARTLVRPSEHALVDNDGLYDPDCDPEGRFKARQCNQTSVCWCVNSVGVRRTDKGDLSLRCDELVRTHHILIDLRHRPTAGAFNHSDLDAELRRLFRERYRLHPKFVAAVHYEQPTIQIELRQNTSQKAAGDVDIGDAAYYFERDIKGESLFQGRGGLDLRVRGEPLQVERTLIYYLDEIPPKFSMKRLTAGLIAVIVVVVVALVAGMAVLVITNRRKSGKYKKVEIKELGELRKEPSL
# protocol text: cell-based or functional assay
measured endpoint: ADCP (Donor A1925144#) Minimum phagocytosis %

Value lookup for ADCP (Donor A1925144#) Minimum phagocytosis %; key = comparative example 2 antibody Tab (hRS7) (antibody, human IgG1, kappa, V domains shown, prepared on the basis of sacituzumab govitecan (ChemPartner, #T07-001); naked antibody) VH: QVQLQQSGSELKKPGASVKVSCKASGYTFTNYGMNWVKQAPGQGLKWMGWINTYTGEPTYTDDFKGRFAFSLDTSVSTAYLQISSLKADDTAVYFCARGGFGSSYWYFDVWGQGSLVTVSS VL: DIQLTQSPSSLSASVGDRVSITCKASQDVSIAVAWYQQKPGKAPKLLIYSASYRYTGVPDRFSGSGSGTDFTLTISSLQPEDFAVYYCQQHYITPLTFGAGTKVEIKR
1.72%

Value lookup for ADCP (Donor A1925144#) Minimum phagocytosis %; key = PR001165 (antibody, human IgG1, kappa, V domains shown, fully human IgG1/kappa; also called antibody No. (26)) VH: QVQLVESGGGVVQPGRSLRLSCEASGFTFSHYGMHWVRQAPGKGLEWVAVIWYDGIKTYYVESVKGRFTISRDNSKNTLNLQMNRLRAEDTAVYYCARDGGFGESNYYGLDVWGQGTTVTVSS VL: DIQLTQSPSFLSASVGDRVTITCRASQGISSYLGWYQQKPGKAPKLLIYIASTLQSGVPSRFSGSGSGTEFTLTISSLQPEDFATYYCQQLNSYPYTFGQGTKLEIKR
2.25%

Value lookup for ADCP (Donor A1925144#) Minimum phagocytosis %; key = PR001142 (antibody, human IgG1, kappa, V domains shown, fully human IgG1/kappa; also called antibody No. (9)) VH: QVQLQESGPGLVKPSGTLSLTCAVSGDSISSNNWWSWVRQPPGKGLEWIGEIYPGGNPNYNPSLKSRVTISVDKSKNQFSLKLNSVTAADTAVYYCARGSGVISYFDYWGQGTLVTVSS VL: DIQMTQSPSTLSASVGDRVTITCRASQSIGHWLAWYQQKPGKAPKLLIYKASSLESGVPSRFRGSGSGTEFTLTISSLQPDDFATYYCQQYSSYSPITFGQGSRLEIKR
0.861%

Value lookup for ADCP (Donor A1925144#) Minimum phagocytosis %; key = PR001166 (antibody, human IgG1, kappa, V domains shown, fully human IgG1/kappa; also called antibody No. (27)) VH: QVQLQESGPGLVKPSETLSLTCAVSGYSISSGYFWAWIRQPPGKGLEWIGSIYHSGRTHYNPSLKSRVIISLDTSKNQFSLKLRSVTAADSAVYYCAREGYASGSYYWGQGTLVTVSS VL: EIVMTQSPATLSVSPGERATLSCRSSQSVNNYLAWFQQKPGQAPRLLIYDSSTRATGIPARFSGSGSGTEFTLTISSLQSEDFAFYFCQQYENWPLTFGGGTKVEIKR
2.05%
